Each item that follows carries a reported EC50.
Tested on: KU-19-19 cells
Assay: CellTiter-Glo Luminescent Cell Viability Assay, KU-19-19
Type: cell-based
Details: Homo sapiens, bladder cancer cell line, Akt1 E17K/E49K, mean ± SD, n=3
quantity measured: EC50

{"columns": ["molecule", "endpoint result"],
 "data": [
  ["C=CC(=O)Nc1ccccc1-c1cn(C2CCN(Cc3ccc(-c4nc5ccccn5c4-c4ccccc4)cc3)CC2)nn1", "29.4 µM"],
  ["C=CC(=O)Nc1ccccc1-c1cn(C2CCN(Cc3ccc(-c4nc5ccccn5c4-c4ccccc4C)cc3)CC2)nn1", "22 µM"],
  ["NC1(c2ccc(-c3nc4ccn5c(=O)[nH]nc5c4cc3-c3ccccc3)cc2)CCC1 [MK‐2206, reference compound]", "5.53 µM"],
  ["C=CC(=O)Nc1ccc2[nH]c(=O)n(C3CCN(Cc4ccc(-c5nc6ccccn6c5-c5ccccc5)cc4)CC3)c2c1", "12.8 µM"],
  ["C=CC(=O)Nc1ccc2[nH]c(=O)n(C3CCN(Cc4ccc(-c5nc6cc[nH]c(=O)c6cc5-c5ccccc5)cc4)CC3)c2c1 [Compound 2, borussertib, reference compound]", "7.82 µM"],
  ["C=CC(=O)Nc1ccc(-c2cn(C3CCN(Cc4ccc(-c5nc6ccccn6c5-c5ccccc5C)cc4)CC3)nn2)cc1", "7.63 µM"]
]}

---

Tested on: MCF-7 cells
Assay: CellTiter-Glo Luminescent Cell Viability Assay, MCF-7
Format: cell-based
Details: Homo sapiens, MCF7, read-out: EC50 MCF‐7
pEC50: −log10 of the molar value.
quantity measured: pEC50

{"columns": ["compound", "quantity measured", "endpoint result"],
 "data": [
  ["CC(C)NC[C@@H](C(=O)N1CCN(c2ncnc3c2[C@H](C)C[C@H]3O)CC1)c1ccc(Cl)cc1 [Ipatasertib, reference compound]", "pEC50", 5.30],
  ["C=CC(=O)Nc1ccc2[nH]c(=O)n(C3CCN(Cc4ccc(-c5nc6cc[nH]c(=O)c6cc5-c5ccccc5)cc4)CC3)c2c1 [Compound 2, borussertib, reference compound]", "pEC50", 6.56]
]}

---

Test system: ZR-75-1 cells
Assay: CellTiter-Glo Luminescent Cell Viability Assay, ZR-75-1
Type: cell-based
Details: Homo sapiens, ZR-75-1; breast cancer cell line; mean ± SD, n=3; read-out: EC50 ZR‐75‐1
pEC50: −log10 of the molar value.

{"columns": ["molecule", "pEC50"],
 "data": [
  ["C=CC(=O)Nc1cccc(-c2cn(C3CCN(Cc4ccc(-c5nc6ccccn6c5-c5ccccc5)cc4)CC3)nn2)c1", 5.66],
  ["C=CC(=O)Nc1cccc(-c2cn(C3CCN(Cc4ccc(-c5nc6cc[nH]c(=O)c6cc5-c5ccccc5)cc4)CC3)nn2)c1", 7.70],
  ["C=CC(=O)Nc1cccc(-c2cn(C3CCN(Cc4ccc(-c5nc6ccccn6c5-c5ccccc5C)cc4)CC3)nn2)c1", 5.38],
  ["C=CC(=O)Nc1ccc(-c2cn(C3CCN(Cc4ccc(-c5nc6ccccn6c5-c5ccccc5C)cc4)CC3)nn2)cc1", 5.27]
]}

---

Each item that follows carries a reported pEC50.
Test system: T47D cells
Assay: CellTiter-Glo Luminescent Cell Viability Assay, T47D
Type: cell-based
Conditions: Homo sapiens, breast cancer cell line, mean ± SD, n=3
pEC50: −log10 of the molar value.
quantity measured: pEC50

{"columns": ["compound", "relation sign", "endpoint result"],
 "data": [
  ["C=CC(=O)Nc1ccccc1-c1cn(C2CCN(Cc3ccc(-c4nc5ccccn5c4-c4ccccc4)cc3)CC2)nn1", "=", 4.82],
  ["C=CC(=O)Nc1cc2c(cc1Cl)[nH]c(=O)n2C1CCN(Cc2ccc(-c3nc4ccccn4c3-c3ccccc3)cc2)CC1", "=", 5.82],
  ["C=CC(=O)Nc1cccc(-c2cn(C3CCN(Cc4ccc(-c5nc6ccccn6c5-c5ccccc5C)cc4)CC3)nn2)c1", "=", 5.31],
  ["CC(C)NC[C@@H](C(=O)N1CCN(c2ncnc3c2[C@H](C)C[C@H]3O)CC1)c1ccc(Cl)cc1 [Ipatasertib, reference compound]", "=", 6.35],
  ["C=CC(=O)Nc1ccc(-c2cn(C3CCN(Cc4ccc(-c5nc6ccccn6c5-c5ccccc5C)cc4)CC3)nn2)cc1", "=", 5.34],
  ["C=CC(=O)Nc1ccc2[nH]c(=O)n(C3CCN(Cc4ccc(-c5nc6ccccn6c5-c5ccccc5)cc4)CC3)c2c1", "=", 6.44],
  ["C=CC(=O)Nc1ccccc1-c1cn(C2CCN(Cc3ccc(-c4nc5ccccn5c4-c4ccccc4C)cc3)CC2)nn1", "<", 4.52],
  ["C=CC(=O)Nc1ccc(-c2cn(C3CCN(Cc4ccc(-c5nc6ccccn6c5-c5ccccc5)cc4)CC3)nn2)cc1", "=", 5.42],
  ["C=CC(=O)Nc1cccc(-c2cn(C3CCN(Cc4ccc(-c5nc6ccccn6c5-c5cccc(C)c5)cc4)CC3)nn2)c1", "=", 5.34]
]}

Values from paper PMC9311865
